The values you see were collected from paper PMC12277872.

Let's look at some compounds and their measured Ki.
- TARGET_OR_TEST_SYSTEM: BChE from equine serum (Equus caballus)
- Construct: C7512‐ BChE from equine serum; purchased Sigma Aldrich C7512; host or cells: equine serum
- Sequence (P81908 whole entry): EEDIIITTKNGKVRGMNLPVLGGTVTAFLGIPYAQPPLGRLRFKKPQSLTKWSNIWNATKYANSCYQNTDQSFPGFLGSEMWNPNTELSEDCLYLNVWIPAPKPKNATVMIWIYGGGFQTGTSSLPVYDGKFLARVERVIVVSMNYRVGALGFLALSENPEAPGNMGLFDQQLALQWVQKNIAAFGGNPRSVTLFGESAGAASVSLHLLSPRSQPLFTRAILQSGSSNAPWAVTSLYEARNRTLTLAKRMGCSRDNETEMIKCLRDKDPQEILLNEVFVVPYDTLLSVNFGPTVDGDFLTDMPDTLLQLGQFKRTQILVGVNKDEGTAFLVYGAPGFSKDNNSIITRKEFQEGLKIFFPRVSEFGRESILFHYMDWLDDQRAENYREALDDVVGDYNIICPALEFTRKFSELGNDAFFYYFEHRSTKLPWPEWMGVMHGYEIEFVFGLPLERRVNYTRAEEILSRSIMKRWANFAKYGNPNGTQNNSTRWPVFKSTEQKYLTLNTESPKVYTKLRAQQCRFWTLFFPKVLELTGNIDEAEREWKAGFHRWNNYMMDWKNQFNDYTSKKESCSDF
- ASSAY_PROTOCOL: biochemical
- ASSAY_CONDITIONS: read-out: K i (nM) BChE
Response body: numeric value in nM, unit text excluded.

For orientation, consider the following solved cases.
[Q] I'd like to know its Ki. The compound in question is CCN(CC)c1ccc(/C=N/NC(=S)NCC(C)C)c(OS(=O)(=O)c2ccc3ccccc3c2)c1 [Compound 5f]
[A] 240

[Q] I'd like to know its Ki. The compound in question is CCN(CC)c1ccc(/C=N/NC(=S)Nc2c(Cl)cccc2Cl)c(OS(=O)(=O)c2ccc3ccccc3c2)c1 [Compound 5u]
[A] 112

[Q] I'd like to know its Ki. The compound in question is CCN(CC)c1ccc(/C=N/NC(=S)NCc2ccccc2)c(OS(=O)(=O)c2ccc3ccccc3c2)c1 [Compound 5s]
[A] 195

Query compound follows.
[Q] I'd like to know its Ki. The compound in question is CCN(CC)c1ccc(/C=N/NC(=S)Nc2ccc(Cl)cc2)c(OS(=O)(=O)c2ccc3ccccc3c2)c1 [Compound 5i]
[A] 190

* * *

- TARGET_OR_TEST_SYSTEM: hMAO‐B (Homo sapiens, UniProt P27338)
- Construct: purchased Sigma Aldrich M7441
- Sequence (P27338 whole entry): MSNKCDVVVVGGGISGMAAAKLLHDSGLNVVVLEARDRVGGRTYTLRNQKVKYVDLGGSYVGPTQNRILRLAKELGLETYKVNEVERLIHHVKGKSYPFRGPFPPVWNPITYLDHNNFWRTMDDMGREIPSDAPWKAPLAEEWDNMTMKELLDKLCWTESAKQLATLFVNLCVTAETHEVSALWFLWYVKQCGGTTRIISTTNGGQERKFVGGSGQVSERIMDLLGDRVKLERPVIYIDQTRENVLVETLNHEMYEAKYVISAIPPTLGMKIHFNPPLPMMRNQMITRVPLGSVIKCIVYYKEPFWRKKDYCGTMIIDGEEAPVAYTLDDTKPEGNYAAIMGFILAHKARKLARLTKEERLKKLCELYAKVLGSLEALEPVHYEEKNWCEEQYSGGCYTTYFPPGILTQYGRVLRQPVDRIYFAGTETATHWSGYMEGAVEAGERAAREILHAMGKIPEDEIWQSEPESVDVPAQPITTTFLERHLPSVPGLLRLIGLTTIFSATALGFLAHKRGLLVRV
- ASSAY_PROTOCOL: In vitro fluorometric MAO-B inhibition assay (tyramine substrate, horseradish peroxidase coupling)
- Assay type: biochemical
- Procedure: The in vitro fluorometric technique was used to assess each newly generated substance's inhibitory activity against hMAO‐A and hMAO‐B. In a horseradish peroxidase coupling reaction, the oxired reagent (10‐acetyl‐3,7‐dihydroxyphenoxazine) detects H2O2, a result of the oxidative deamination of tyramine, which is utilized as an MAO substrate. The test was carried out in two steps. First, each compound's concentrations of 10^–3 and 10^–4 M were investigated. […]
Output Met for records whose IC50 is lower than 300 nM, Not met for records at or above 300 nM.

Some solved cases for reference:
[Q] Just wondering, is IC50 of CCN(CC)c1ccc(/C=N/NC(=S)Nc2c(Cl)cccc2Cl)c(OS(=O)(=O)c2ccc3ccccc3c2)c1 [Compound 5u] below 300 nM?
[A] Met

[Q] Just wondering, is IC50 of CCN(CC)c1ccc(/C=N/NC(=S)Nc2c(C)cccc2C)c(OS(=O)(=O)c2ccc3ccccc3c2)c1 [Compound 5j] below 300 nM?
[A] Not met

[Q] Just wondering, is IC50 of CCN(CC)c1ccc(/C=N/NC(=S)NCC(C)C)c(OS(=O)(=O)c2ccc3ccccc3c2)c1 [Compound 5f] below 300 nM?
[A] Not met

Continuing:
[Q] Just wondering, is IC50 of CCN(CC)c1ccc(/C=N/NC(=S)Nc2cccc([N+](=O)[O-])c2)c(OS(=O)(=O)c2ccc3ccccc3c2)c1 [Compound 5o] below 300 nM?
[A] Met

[Q] Just wondering, is IC50 of CCN(CC)c1ccc(/C=N/NC(=S)NC)c(OS(=O)(=O)c2ccc3ccccc3c2)c1 [Compound 5m] below 300 nM?
[A] Not met

[Q] Just wondering, is IC50 of CCN(CC)c1ccc(/C=N/NC(=S)Nc2ccc(Cl)cc2)c(OS(=O)(=O)c2ccc3ccccc3c2)c1 [Compound 5i] below 300 nM?
[A] Met
